Tested on: Escherichia coli
Experiment: Antimicrobial activity against Escherichia coli MTCC 724
Type: functional
METRIC: MIC (µg/mL)
A number alone suffices; assume µg/mL.

Below: 2 compounds and their reported MIC.
[[record]]
compound = "COc1cc(-c2nc(C3CC(c4ccc(O)cc4)=NN3c3ccccc3)no2)cc(OC)c1OC (stereo not given)"
endpoint_result = 15

[[record]]
compound = "Clc1ccc(C2=NN(c3ccccc3)C(c3noc(-c4ccccc4)n3)C2)cc1 (stereo not given)"
endpoint_result = 45


Bench note, Escherichia coli: entry COc1ccc(C2=NN(c3ccccc3)C(c3noc(-c4ccc(OC)c(OC)c4)n3)C2)cc1 (stereo not given) , its MIC = 20

The reported MIC value, Escherichia coli, for Clc1ccc(C2=NN(c3ccccc3)C(c3noc(-c4ccc(Cl)cc4)n3)C2)cc1 (stereo not given) reads 20

Value (MIC, Escherichia coli) for record COc1ccc(-c2nc(C3CC(c4ccc(O)cc4)=NN3c3ccccc3)no2)cc1OC (stereo not given) = 25

MIC for Escherichia coli with input c1ccc(C2=NN(c3ccccc3)C(c3noc(-c4ccccc4)n3)C2)cc1 (stereo not given) equals 50

The reported Escherichia coli MIC of Clc1ccc(-c2nc(C3CC(c4ccccc4)=NN3c3ccccc3)no2)cc1 (stereo not given) is 30

Form field MIC for item COc1ccccc1-c1nc(C2CC(c3ccc(Cl)cc3)=NN2c2ccccc2)no1 (stereo not given) on Escherichia coli: 35

MIC for Escherichia coli with input COc1ccc(-c2nc(C3CC(c4ccccc4)=NN3c3ccccc3)no2)cc1OC (stereo not given) equals 20

// MIC (Escherichia coli) for Oc1ccc(C2=NN(c3ccccc3)C(c3noc(-c4ccc(O)cc4)n3)C2)cc1 (stereo not given) = 10

* * *

System: Aspergillus flavus
Test: Antimicrobial activity against Aspergillus flavus MTCC 873 at 100 ug/ml after 24 hrs by agar disc diffusion method
Format: functional
Settings: MTCC 873, 24 h, read-out: DIZ
Decision: zone of inhibition at 100 µg/mL compared against 20 mm; not below it gives condition met, below it gives condition not met.

Study these solved cases before continuing.
[[record]]
compound = "COc1ccc(C2=NN(c3ccccc3)C(/C(N)=N/O)C2)cc1 (configuration not stated)"
label_class = "condition not met"

[[record]]
compound = "COc1cc(-c2nc(C3CC(c4ccc(O)cc4)=NN3c3ccccc3)no2)cc(OC)c1OC (configuration not stated)"
label_class = "condition met"

[[record]]
compound = "c1ccc(-c2cc(-c3noc(-c4ccccc4)n3)n(-c3ccccc3)n2)cc1"
label_class = "condition not met"

[[record]]
compound = "COc1ccc(C2=NN(c3ccccc3)C(c3noc(-c4ccccc4)n3)C2)cc1 (configuration not stated)"
label_class = "condition not met"

[[record]]
compound = "COc1ccc(C2=NN(c3ccccc3)C(c3noc(-c4ccccc4OC)n3)C2)cc1 (configuration not stated)"
label_class = "condition not met"

[[record]]
compound = "Clc1ccc(C2=NN(c3ccccc3)C(c3noc(-c4ccc(Cl)cc4)n3)C2)cc1 (configuration not stated)"
label_class = "condition met"

[[record]]
compound = "c1ccc(C2=NN(c3ccccc3)C(c3noc(-c4ccccc4)n3)C2)cc1 (configuration not stated)"
label_class = "condition not met"

[[record]]
compound = "COc1ccc(C2=NN(c3ccccc3)C(c3noc(-c4ccc(Cl)cc4)n3)C2)cc1 (configuration not stated)"
label_class = "condition not met"

[[record]]
compound = "Oc1ccc(C2=NN(c3ccccc3)C(c3noc(-c4ccc(Cl)cc4)n3)C2)cc1 (configuration not stated)"
label_class = "condition not met"


Then there is this compound:
Please tell me: is the compound COc1ccc(-c2nc(C3CC(c4ccc(Cl)cc4)=NN3c3ccccc3)no2)cc1OC (configuration not stated) at or over 20 mm in terms of zone of inhibition at 100 µg/mL?
condition met

* * *

Reported zone of inhibition at 100 µg/mL values follow for various molecules
Test system: Klebsiella pneumoniae
Assay: Antimicrobial activity against Klebsiella pneumoniae MTCC 3384 at 100 ug/ml after 24 hrs by agar disc diffusion method
Type: functional
Conditions: MTCC 3384, 24 h, read-out: DIZ
Quick note: give the figure in mm, leave out the unit.

[[record]]
molecule = "c1ccc(-c2cc(-c3noc(-c4ccccc4)n3)n(-c3ccccc3)n2)cc1"
endpoint_result = 6


zone of inhibition at 100 µg/mL in this record for Clc1ccc(-c2nc(C3CC(c4ccccc4)=NN3c3ccccc3)no2)cc1 (stereo unspecified) : 8

zone of inhibition at 100 µg/mL measured on N/C(=N\O)C1CC(c2ccc(O)cc2)=NN1c1ccccc1 (stereo unspecified) = 12

* * *

Reported zone of inhibition at 100 µg/mL values for a set of compounds
System: Bacillus cereus
Test: Antimicrobial activity against Bacillus cereus MTCC 8372 at 100 ug/ml after 24 hrs by agar disc diffusion method
Type: functional
Conditions: MTCC 8372, 24 h, read-out: DIZ
Hi! Could you send only the number? It should be in mm, unit omitted.

[[record]]
compound = "Clc1ccc(C2=NN(c3ccccc3)C(c3noc(-c4ccccc4)n3)C2)cc1 (stereo not given)"
metric = "zone of inhibition at 100 µg/mL"
endpoint_result = 8


Noted for COc1ccccc1-c1nc(C2CC(c3ccc(Cl)cc3)=NN2c2ccccc2)no1 (stereo not given) : its zone of inhibition at 100 µg/mL reads 8

Memo: COc1ccc(C2=NN(c3ccccc3)C(c3noc(-c4ccccc4)n3)C2)cc1 (stereo not given) , reported zone of inhibition at 100 µg/mL: 12

// zone of inhibition at 100 µg/mL lookup, compound = COc1ccc(-c2nc(C3CC(c4ccccc4)=NN3c3ccccc3)no2)cc1OC (stereo not given) , result: 14

Entry COc1ccc(C2=NN(c3ccccc3)C(c3noc(-c4ccccc4OC)n3)C2)cc1 (stereo not given) ; zone of inhibition at 100 µg/mL = 8

Noted for COc1ccc(C2=NN(c3ccccc3)C(c3noc(-c4ccc(Cl)cc4)n3)C2)cc1 (stereo not given) : its zone of inhibition at 100 µg/mL reads 13

* * *

Test system: Aspergillus flavus
Test: Antimicrobial activity against Aspergillus flavus MTCC 873 at 100 ug/ml after 24 hrs by agar disc diffusion method
Type: functional
Conditions: MTCC 873, 24 h, read-out: DIZ
A collection of molecules and their measured zone of inhibition at 100 µg/mL
# number only, unit mm dropped from output

Use the examples below as a reference point.
[[record]]
molecule = "N/C(=N\\O)C1CC(c2ccc(O)cc2)=NN1c1ccccc1 (stereo not given)"
endpoint_result = 12

[[record]]
molecule = "N/C(=N\\O)C1CC(c2ccccc2)=NN1c1ccccc1 (stereo not given)"
endpoint_result = 4

[[record]]
molecule = "COc1ccc(-c2nc(C3CC(c4ccccc4)=NN3c3ccccc3)no2)cc1OC (stereo not given)"
endpoint_result = 14

[[record]]
molecule = "Clc1ccc(-c2nc(C3CC(c4ccccc4)=NN3c3ccccc3)no2)cc1 (stereo not given)"
endpoint_result = 14

[[record]]
molecule = "Clc1ccc(C2=NN(c3ccccc3)C(c3noc(-c4ccccc4)n3)C2)cc1 (stereo not given)"
endpoint_result = 18


molecule COc1ccccc1-c1nc(C2CC(c3ccc(Cl)cc3)=NN2c2ccccc2)no1 (stereo not given) , zone of inhibition at 100 µg/mL observed: 10

N/C(=N\O)C1CC(c2ccc(Cl)cc2)=NN1c1ccccc1 (stereo not given) yielded zone of inhibition at 100 µg/mL of 10

For this molecule ( COc1ccccc1-c1nc(C2CC(c3ccccc3)=NN2c2ccccc2)no1 (stereo not given) ), measured zone of inhibition at 100 µg/mL is 12

Kindly note the recorded zone of inhibition at 100 µg/mL for OC(Cn1cncn1)(Cn1cncn1)c1ccc(F)cc1F , which is 28

// sample Oc1ccc(C2=NN(c3ccccc3)C(c3noc(-c4ccc(O)cc4)n3)C2)cc1 (stereo not given) , its zone of inhibition at 100 µg/mL was 20

* * *

System: Escherichia coli
Experiment: Antimicrobial activity against Escherichia coli MTCC 724 at 50 ug/ml after 24 hrs by agar disc diffusion method
Type: functional
Conditions: MTCC 724, 24 h, read-out: DIZ
A collection of compounds and their measured zone of inhibition at 50 µg/mL
Give the value in mm but do not write mm after it.

[[record]]
compound = "COc1ccc(-c2nc(C3CC(c4ccccc4)=NN3c3ccccc3)no2)cc1OC (configuration not stated)"
metric = "zone of inhibition at 50 µg/mL"
readout_units = "mm"
endpoint_result = 8

[[record]]
compound = "COc1ccc(C2=NN(c3ccccc3)C(c3noc(-c4ccc(Cl)cc4)n3)C2)cc1 (configuration not stated)"
metric = "zone of inhibition at 50 µg/mL"
readout_units = "mm"
endpoint_result = 8

[[record]]
compound = "c1ccc(-c2cc(-c3noc(-c4ccccc4)n3)n(-c3ccccc3)n2)cc1"
metric = "zone of inhibition at 50 µg/mL"
readout_units = "mm"
endpoint_result = 4

[[record]]
compound = "COc1ccccc1-c1nc(C2CC(c3ccccc3)=NN2c2ccccc2)no1 (configuration not stated)"
metric = "zone of inhibition at 50 µg/mL"
readout_units = "mm"
endpoint_result = 4

[[record]]
compound = "COc1ccc(C2=NN(c3ccccc3)C(c3noc(-c4ccccc4OC)n3)C2)cc1 (configuration not stated)"
metric = "zone of inhibition at 50 µg/mL"
readout_units = "mm"
endpoint_result = 6

[[record]]
compound = "Clc1ccc(-c2nc(C3CC(c4ccccc4)=NN3c3ccccc3)no2)cc1 (configuration not stated)"
metric = "zone of inhibition at 50 µg/mL"
readout_units = "mm"
endpoint_result = 4

[[record]]
compound = "Oc1ccc(C2=NN(c3ccccc3)C(c3noc(-c4ccc(Cl)cc4)n3)C2)cc1 (configuration not stated)"
metric = "zone of inhibition at 50 µg/mL"
readout_units = "mm"
endpoint_result = 8

[[record]]
compound = "N/C(=N\\O)C1CC(c2ccccc2)=NN1c1ccccc1 (configuration not stated)"
metric = "zone of inhibition at 50 µg/mL"
readout_units = "mm"
endpoint_result = 2

[[record]]
compound = "COc1ccc(C2=NN(c3ccccc3)C(/C(N)=N/O)C2)cc1 (configuration not stated)"
metric = "zone of inhibition at 50 µg/mL"
readout_units = "mm"
endpoint_result = 3

[[record]]
compound = "COc1ccc(C2=NN(c3ccccc3)C(c3noc(-c4ccccc4)n3)C2)cc1 (configuration not stated)"
metric = "zone of inhibition at 50 µg/mL"
readout_units = "mm"
endpoint_result = 6


The compound N/C(=N\O)C1CC(c2ccc(O)cc2)=NN1c1ccccc1 (configuration not stated) showed zone of inhibition at 50 µg/mL equal to 10

Form field zone of inhibition at 50 µg/mL, entry c1ccc(C2=NN(c3ccccc3)C(c3noc(-c4ccccc4)n3)C2)cc1 (configuration not stated) : 3

Looking up COc1cc(-c2nc(C3CC(c4ccc(O)cc4)=NN3c3ccccc3)no2)cc(OC)c1OC (configuration not stated) , I found its zone of inhibition at 50 µg/mL recorded as 10
